# Tested on: HOP-92 NSCLC
# assay text: NCI tumour cell line growth inhibition, 48 h
metric name: TGI (µM)
Reply with just the number (in µM).

Sample answers from the record:
[[record]]
compound = "O=C1C=C/C(=C/[C@H]2SSC=C[C@]23C=CC(=O)C3)C1"
recorded_measurement = 61.5

[[record]]
compound = "CN(/N=C\\c1ccc2ccccc2c1)C1=NCCCN1"
recorded_measurement = 14.5


Request: # TGI lookup, item Clc1ccc(C2=NCON=C2c2ccc(Cl)cc2)cc1
Response: 43.5

Request: Look up TGI: CCCCCCCCCCCCC1N=C(N)N2CCCC2=C1C(=O)OC (stereo unspecified)
Response: 10.3

Request: Requested field: TGI. Item: COc1c(O)c2c3c(c1OC)-c1ccccc1CC3N(S(=O)(=O)c1ccc(C)cc1)CC2 (stereo unspecified)
Response: 29

Request: Any idea what its TGI is? The compound is CC(C)(CN1CCCCC1)C(=O)CC(SCCS(=O)(=O)O)c1ccc(Cl)cc1 (stereo unspecified)
Response: 7.13
